Let's look at some compounds and their measured inhibition.
Biological target: Prostaglandin G/H synthase 1 (Ovis aries) (UniProt P05979)
Sequence (P05979 whole entry): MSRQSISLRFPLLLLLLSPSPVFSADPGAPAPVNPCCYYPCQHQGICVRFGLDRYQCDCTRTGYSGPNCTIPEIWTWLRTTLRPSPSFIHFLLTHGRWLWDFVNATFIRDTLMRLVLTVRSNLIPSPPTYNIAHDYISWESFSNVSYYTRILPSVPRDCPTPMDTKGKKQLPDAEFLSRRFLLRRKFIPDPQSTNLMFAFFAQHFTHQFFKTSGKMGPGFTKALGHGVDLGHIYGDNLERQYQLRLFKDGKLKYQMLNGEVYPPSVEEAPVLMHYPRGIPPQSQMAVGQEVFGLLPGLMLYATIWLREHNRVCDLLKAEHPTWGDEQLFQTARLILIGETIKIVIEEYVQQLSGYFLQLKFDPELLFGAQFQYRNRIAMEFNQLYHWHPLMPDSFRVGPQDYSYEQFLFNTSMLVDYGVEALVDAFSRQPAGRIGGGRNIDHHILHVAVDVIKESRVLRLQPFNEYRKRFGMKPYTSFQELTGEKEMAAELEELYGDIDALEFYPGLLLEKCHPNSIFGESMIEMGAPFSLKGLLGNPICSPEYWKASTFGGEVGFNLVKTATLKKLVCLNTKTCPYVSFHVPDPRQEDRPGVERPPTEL
Experiment: Inhibition of ovine COX1 at 100 uM

{"columns": ["smiles-text", "inhibition / %"],
 "data": [
  ["Cc1cccc(NS(=O)(=O)c2ccc(C(=O)O)cc2)c1", 0],
  ["Nc1ccc(S(=O)(=O)Nc2ccccc2)cc1", 0],
  ["CS(=O)(=O)Nc1ccc(S(=O)(=O)Nc2ccc(Cl)cc2)cc1", 11]
]}

----------
Target: Prostaglandin G/H synthase 1 (Ovis aries) (UniProt P05979)
Assay: Inhibition of ovine COX1 at 100 uM
Let's look at some molecules and their measured inhibition.

{"columns": ["smiles-text", "measurement-target", "inhibition / %"],
 "data": [
  ["COc1ccc(NS(=O)(=O)c2ccc([N+](=O)[O-])cc2)cc1", "Prostaglandin G/H synthase 1 (Ovis aries) (UniProt P05979)", 0],
  ["Cc1cccc(NS(=O)(=O)c2ccc(N)cc2)c1", "Prostaglandin G/H synthase 1 (Ovis aries) (UniProt P05979)", 8],
  ["COc1ccc(N(C)S(=O)(=O)c2ccc(N)cc2)cc1", "Prostaglandin G/H synthase 1 (Ovis aries) (UniProt P05979)", 6],
  ["Nc1ccc(S(=O)(=O)Nc2ccc(Cl)cc2)cc1", "Prostaglandin G/H synthase 1 (Ovis aries) (UniProt P05979)", 70],
  ["COc1cc(N)ccc1NS(=O)(=O)c1ccc(Cl)cc1", "Prostaglandin G/H synthase 1 (Ovis aries) (UniProt P05979)", 1],
  ["CS(=O)(=O)Nc1ccc(S(=O)(=O)Nc2ccccc2)cc1", "Prostaglandin G/H synthase 1 (Ovis aries) (UniProt P05979)", 0]
]}

Reference for the values: ChEMBL document CHEMBL1144540
